// values below are reported LAP4-GFP fluorescence (kMESF)
TEST_DETAILS: LAP4-GFP modulation potency in yeast, dose response, cell-based, MLPCN hits, flow cytometry (AID 2745);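 note: yeast exposed to compound for three hours at 30 degrees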
TEST_CONDITIONS: S. cerevisiae LAP4-GFP reporter, flow cytometry fluorescence; at 33 µM (top of the series)
Activity calls are given as the source filed them. The rule behind the calls is not given here.

Observe how each entry below is paired with its result.
Using known records, supply LAP4-GFP fluorescence (kMESF) for O=C(NNC(=S)NC(=O)c1ccco1)c1ccc(F)cc1
5.61 kMESF (inactive)

Please give measured LAP4-GFP fluorescence (kMESF) of the following entry: Cc1ccc(C(=O)Oc2oc(-c3ccccc3)nc2C=Nc2ccc(N(C)C)cc2)cc1
6.02 kMESF (inactive)

# return recorded LAP4-GFP fluorescence (kMESF) for input O=C(/C=C/c1ccnc2ccccc12)c1cccs1
11.4 kMESF (inactive)

Please give measured LAP4-GFP fluorescence (kMESF) of the following entry: O=C(OCC(=O)N1CCN(C(=O)c2ccco2)CC1)c1cc(-c2cccc(Br)c2)nc2ccccc12
9.27 kMESF (inactive)

Supply LAP4-GFP fluorescence (kMESF) value. Item: COc1ccccc1C(=O)NNC(=S)NC(=O)c1cccs1
6.21 kMESF (inactive)

Continuing:
Identify LAP4-GFP fluorescence (kMESF) associated with the compound Cc1ccc(NC(=O)c2cc(N3C(=O)C=CC3=O)ccc2Cl)cc1C
4.75 kMESF (inactive)

Read off the recorded LAP4-GFP fluorescence (kMESF) for O=C(O)c1ccn2c(C(=O)c3ccccc3)c(-c3ccccc3)cc2c1
7.25 kMESF (inactive)

Consider the compound Cc1ccc(N2C(=O)CC(Sc3ncn[nH]3)C2=O)cc1C (stereo unspecified) . State its measured LAP4-GFP fluorescence (kMESF).
7.56 kMESF (inactive)

Give LAP4-GFP fluorescence (kMESF) for the following compound: O=C1N(c2ccccc2C(F)(F)F)O[C@@]1(c1ccccc1)C1CCCC1
2.93 kMESF (inactive)

Look up and state reported LAP4-GFP fluorescence (kMESF) for CC(C)(C)c1cc(C(c2cccnc2)N2CCN(CCO)CC2)cc(C(C)(C)C)c1O (stereo unspecified)
7.26 kMESF (inactive)

Specify reported LAP4-GFP fluorescence (kMESF) for the compound shown: COc1cc(/C=C/c2ccc3c(Br)cc(Br)c(O)c3n2)ccc1O
11.7 kMESF (inactive)

Origin of values: PubChem BioAssay AID2745
